Assay: AUC (0 to 72 hrs) in Sprague-Dawley rat at 2.5 mg/kg, iv
Assay type: ADME, organism-based
Set-up: time < 72 hr, dose 2.5 mg/kg, route intravenous
Settings: plasma
reportedProperty: AUC(0-t) at 72 h (ng·h/mL)

- compoundSmiles: "CCS(=O)(=O)Nc1cccc(-c2cc(=O)n(-c3ccc(Cl)c(Cl)c3)nc2C)c1"
  recordedMeasurement: 27500

---

Target: CYP3A4 (Homo sapiens)
Sequence (P08684 whole entry): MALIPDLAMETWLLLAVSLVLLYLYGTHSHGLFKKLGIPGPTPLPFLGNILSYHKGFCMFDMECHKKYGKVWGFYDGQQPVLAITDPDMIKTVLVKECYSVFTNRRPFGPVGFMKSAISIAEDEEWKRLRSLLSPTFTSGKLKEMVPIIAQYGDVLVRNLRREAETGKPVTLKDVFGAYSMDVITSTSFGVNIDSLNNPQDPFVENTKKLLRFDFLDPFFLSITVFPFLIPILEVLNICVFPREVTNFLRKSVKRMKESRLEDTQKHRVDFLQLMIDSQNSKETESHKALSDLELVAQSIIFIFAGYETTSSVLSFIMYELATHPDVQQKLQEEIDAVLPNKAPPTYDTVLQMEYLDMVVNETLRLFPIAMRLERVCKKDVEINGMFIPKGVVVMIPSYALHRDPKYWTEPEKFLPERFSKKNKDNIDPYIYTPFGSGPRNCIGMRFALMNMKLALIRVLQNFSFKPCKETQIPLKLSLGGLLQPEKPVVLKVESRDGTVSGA
Test: Inhibition of human recombinant CYP3A4 using dibenzylfluorescein as substrate at 10 uM preincubated for 20 mins prior to enzyme/substrate addition measured after 20 mins by fluorometric assay relative to control
Assay type: ADME
Conditions: recombinant CYP3A4, probe dibenzylfluorescein

- compoundSmiles: "CCS(=O)(=O)Nc1cccc(-c2cc(=O)n(-c3ccc(Cl)c(Cl)c3)nc2C)c1"
  outputUnit: "%"
  inhibition at 20 min, 10 µM: 6.7
